experimental-system: F508del-CFTR (Homo sapiens, UniProt P13569, DEL508-508)
Sequence (P13569 with tags, fused parts or gaps DEL508-508): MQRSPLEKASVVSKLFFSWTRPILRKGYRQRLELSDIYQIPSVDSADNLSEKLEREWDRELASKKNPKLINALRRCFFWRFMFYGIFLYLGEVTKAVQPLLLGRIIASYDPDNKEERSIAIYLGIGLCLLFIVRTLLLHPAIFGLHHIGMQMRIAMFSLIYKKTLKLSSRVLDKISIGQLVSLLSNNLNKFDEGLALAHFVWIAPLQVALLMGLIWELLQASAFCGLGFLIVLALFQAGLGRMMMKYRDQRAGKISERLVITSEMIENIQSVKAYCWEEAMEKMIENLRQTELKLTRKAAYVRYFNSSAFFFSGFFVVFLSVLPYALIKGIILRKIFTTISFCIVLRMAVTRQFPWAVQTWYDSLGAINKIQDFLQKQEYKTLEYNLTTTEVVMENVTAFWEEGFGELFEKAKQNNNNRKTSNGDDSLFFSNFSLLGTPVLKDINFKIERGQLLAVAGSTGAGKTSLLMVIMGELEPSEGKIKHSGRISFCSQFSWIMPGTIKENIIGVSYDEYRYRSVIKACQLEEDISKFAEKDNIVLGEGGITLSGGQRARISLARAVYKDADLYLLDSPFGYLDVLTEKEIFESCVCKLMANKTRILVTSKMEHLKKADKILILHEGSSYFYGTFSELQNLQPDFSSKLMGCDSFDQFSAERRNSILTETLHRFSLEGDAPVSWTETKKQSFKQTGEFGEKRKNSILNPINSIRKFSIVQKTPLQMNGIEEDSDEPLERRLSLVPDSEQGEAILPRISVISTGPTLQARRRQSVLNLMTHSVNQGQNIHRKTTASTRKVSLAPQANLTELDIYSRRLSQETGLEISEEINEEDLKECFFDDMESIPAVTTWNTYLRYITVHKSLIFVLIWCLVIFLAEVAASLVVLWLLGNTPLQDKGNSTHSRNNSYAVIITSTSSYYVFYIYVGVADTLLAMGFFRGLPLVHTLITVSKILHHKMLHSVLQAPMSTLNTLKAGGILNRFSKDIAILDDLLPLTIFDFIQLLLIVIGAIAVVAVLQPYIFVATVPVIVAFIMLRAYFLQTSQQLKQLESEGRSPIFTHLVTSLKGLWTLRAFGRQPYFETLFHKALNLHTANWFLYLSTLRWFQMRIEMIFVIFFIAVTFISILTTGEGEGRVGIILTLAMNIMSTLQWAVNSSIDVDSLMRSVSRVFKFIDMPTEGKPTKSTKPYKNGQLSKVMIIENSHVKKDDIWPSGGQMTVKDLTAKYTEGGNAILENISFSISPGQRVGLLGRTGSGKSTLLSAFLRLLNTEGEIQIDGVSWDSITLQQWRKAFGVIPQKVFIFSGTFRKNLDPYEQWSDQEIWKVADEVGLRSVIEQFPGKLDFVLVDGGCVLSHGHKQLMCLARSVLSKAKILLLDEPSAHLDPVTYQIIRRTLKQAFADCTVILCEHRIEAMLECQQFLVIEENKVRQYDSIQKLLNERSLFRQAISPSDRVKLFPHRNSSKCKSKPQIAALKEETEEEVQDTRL
assay: HS-YFP kinetic fluorescence (iodide quenching rate) assay in CFBE41o− cells
Assay type: cell-based
Design: expressed in transfected cells; host or cells: CFBE41o- cells with expression of F508del-CFTR and HS-YFP (generated as in Sondo et al. 2011)
applied-conditions: Table 4; compound at 10 μM plus VX-809; (QRTOT − QRVX)/QRVX
Quick reference for AI (%) additivity index among some compounds

| compound-structure | AI (%) additivity index |
| --- | --- |
| CC(C)OC(=O)c1c(Br)cc2n1CCc1cc(S(=O)(=O)c3ccccc3)c(=O)[nH]c1-2 | 101 |
| CCOC(=O)c1c(Br)cc2n1CCCc1cc(S(=O)(=O)c3ccccc3)c(=O)[nH]c1-2 | 136 |
| CCOC(=O)c1ccc2n1CCCc1cc(S(=O)(=O)c3ccccc3)c(=O)[nH]c1-2 | 19 |
| CC(C)OC(=O)c1ccc2n1CCCc1cc(S(=O)(=O)c3ccccc3)c(=O)[nH]c1-2 | 8 |
| CC(C)OC(=O)c1c(Br)cc2n1CCCc1cc(S(=O)(=O)c3ccccc3)c(=O)[nH]c1-2 | 141 |
| CCOC(=O)c1c(Br)cc2n1CCc1cc(S(=O)(=O)c3ccccc3)c(=O)[nH]c1-2 | 19 |

###

Quick reference for AI (%) additivity index among some compounds
experimental-system: F508del-CFTR (Homo sapiens, UniProt P13569, DEL508-508)
assay: HS-YFP kinetic fluorescence (iodide quenching rate) assay in CFBE41o− cells
Format: cell-based
Parameters: expressed in transfected cells; host or cells: CFBE41o- cells with expression of F508del-CFTR and HS-YFP (generated as in Sondo et al. 2011)
applied-conditions: Table 5; compound at 10 μM plus VX-809; (QRTOT-QRVX)/QRVX

| compound-structure | measure-unit | AI (%) additivity index |
| --- | --- | --- |
| CCOC(=O)c1ccc2n1CCc1cnc(NC3CCCC3)nc1-2 | % | 18 |
| CC(C)OC(=O)c1ccc2n1CCCc1cnc(N)nc1-2 | % | 6 |
| CC(C)OC(=O)c1ccc2n1CCc1cnc(NC3CCCC3)nc1-2 | % | 5 |
| CC(=O)Nc1ncc2c(n1)-c1ccc(C(=O)OC(C)C)n1CCC2 | % | 2 |

###

experimental-system: F508del-CFTR (Homo sapiens, UniProt P13569, DEL508-508)
assay: HS-YFP kinetic fluorescence (iodide quenching rate) assay in CFBE41o− cells
Assay type: cell-based
Set-up: expressed in transfected cells; host or cells: CFBE41o- cells with expression of F508del-CFTR and HS-YFP (generated as in Sondo et al. 2011)
applied-conditions: Table 1; compound at 10 μM plus VX-809; (QRTOT − QRVX)/QRVX, HS-YFP assay
AI (%) additivity index strictly less than 50% = 1 (yes). Otherwise 0 (no).

| compound | category |
| --- | --- |
| CCOC(=O)c1cc2c(n1Cc1ccc(C)cc1C)-c1[nH]c(=O)c(S(=O)(=O)c3ccccc3)cc1CC2 | 1 (yes) |
| CC(C)NC(=O)c1cc2c(n1Cc1ccc(Br)cc1)-c1[nH]c(=O)c(S(=O)(=O)c3ccccc3)cc1CC2 | 1 (yes) |
| CCOC(=O)c1cc2c(n1Cc1ccc(C)cc1)-c1[nH]c(=O)c(S(=O)(=O)c3ccc(C)cc3)cc1CC2 | 0 (no) |
| CCOC(=O)c1c(Br)c2c(n1Cc1ccc(C)cc1)-c1[nH]c(=O)c(S(=O)(=O)c3ccc(C)cc3)cc1CC2 | 0 (no) |
| Cc1cccc(Cn2c(C(=O)NC(C)C)cc3c2-c2[nH]c(=O)c(S(=O)(=O)c4ccccc4)cc2CC3)c1 | 0 (no) |
| CCOC(=O)c1cc2c(n1Cc1ccc(Br)cc1)-c1[nH]c(=O)c(S(=O)(=O)c3ccccc3)cc1CC2 | 0 (no) |
| Cc1cccc(Cn2c(C(=O)O)c(Br)c3c2-c2[nH]c(=O)c(S(=O)(=O)c4ccccc4)cc2CC3)c1 | 1 (yes) |
| COC(=O)c1cc2c(n1Cc1ccccc1C)-c1[nH]c(=O)c(S(=O)(=O)c3ccccc3)cc1CC2 | 1 (yes) |
| CCOC(=O)c1c(Br)c2c(n1Cc1c(C)cc(C)cc1C)-c1[nH]c(=O)c(S(=O)(=O)c3ccccc3)cc1CC2 | 0 (no) |
| CC(C)OC(=O)c1c(Br)c2c(n1Cc1ccc(F)cc1)-c1[nH]c(=O)c(S(=O)(=O)c3ccccc3)cc1CC2 | 0 (no) |
| Cc1cccc(Cn2c(C(=O)NS(=O)(=O)c3ccccc3)c(Br)c3c2-c2[nH]c(=O)c(S(=O)(=O)c4ccccc4)cc2CC3)c1 | 1 (yes) |
| Cc1cccc(Cn2c(C(N)=O)cc3c2-c2[nH]c(=O)c(S(=O)(=O)c4ccccc4)cc2CC3)c1 [PP093] | 1 (yes) |
| Cc1ccc(Cn2c(C(=O)OC(C)C)c(Br)c3c2-c2[nH]c(=O)c(S(=O)(=O)c4ccccc4)cc2CC3)cc1 | 0 (no) |
| CCOC(=O)c1c(Br)c2c(n1Cc1ccc(Cl)cc1)-c1[nH]c(=O)c(S(=O)(=O)c3ccccc3)cc1CC2 | 1 (yes) |
| CCOC(=O)c1c(Br)c2c(n1Cc1cccc(C)c1)-c1[nH]c(=O)c(S(=O)(=O)c3ccccc3)cc1CC2 | 0 (no) |
| CCOC(=O)c1c(Br)c2c(n1CC1CC1)-c1[nH]c(=O)c(S(=O)(=O)c3ccccc3)cc1CC2 | 0 (no) |
| Cc1cccc(Cn2c(C(=O)OC(C)C)c(Br)c3c2-c2[nH]c(=O)c(S(=O)(=O)c4ccccc4)cc2CC3)c1 | 0 (no) |
| CCOC(=O)c1cc2c(n1Cc1c(C)cc(C)cc1C)-c1[nH]c(=O)c(S(=O)(=O)c3ccccc3)cc1CC2 | 0 (no) |
| CCOC(=O)c1c(Br)c2c(n1Cc1cccc(C)c1)-c1[nH]c(=O)c(S(=O)(=O)c3ccc(Cl)cc3)cc1CC2 | 0 (no) |
| Cc1cccc(Cn2c(C(=O)NC3CC3)cc3c2-c2[nH]c(=O)c(S(=O)(=O)c4ccccc4)cc2CC3)c1 [PP084] | 1 (yes) |
| CCOC(=O)c1cc2c(n1Cc1ccc(C)cc1)-c1[nH]c(=O)c(S(=O)(=O)c3ccccc3)cc1CC2 | 0 (no) |
| Cc1ccc(Cn2c(C(=O)O)c(Br)c3c2-c2[nH]c(=O)c(S(=O)(=O)c4ccccc4)cc2CC3)cc1 | 1 (yes) |
| O=C(NC1CC1)c1cc2c(n1Cc1ccc(Br)cc1)-c1[nH]c(=O)c(S(=O)(=O)c3ccccc3)cc1CC2 | 1 (yes) |
| Cc1ccc(Cn2c(C(=O)O)cc3c2-c2[nH]c(=O)c(S(=O)(=O)c4ccccc4)cc2CC3)cc1 | 1 (yes) |
| CCOC(=O)c1cc2c(n1Cc1ccc(F)cc1)-c1[nH]c(=O)c(S(=O)(=O)c3ccccc3)cc1CC2 | 0 (no) |
| CCOC(=O)c1cc2c(n1CCCN(C)C)-c1[nH]c(=O)c(S(=O)(=O)c3ccccc3)cc1CC2 | 1 (yes) |
| CC(C)OC(=O)c1cc2c(n1Cc1ccc(F)cc1)-c1[nH]c(=O)c(S(=O)(=O)c3ccccc3)cc1CC2 | 0 (no) |
| CCOC(=O)c1c(Br)c2c(n1Cc1ccc(C)cc1)-c1[nH]c(=O)c(S(=O)(=O)c3ccccc3)cc1CC2 | 0 (no) |
| CCOC(=O)c1c(Br)c2c(n1Cc1ccc(C)cc1C)-c1[nH]c(=O)c(S(=O)(=O)c3ccccc3)cc1CC2 | 0 (no) |

###

experimental-system: F508del-CFTR (Homo sapiens, UniProt P13569, DEL508-508)
assay: HS-YFP kinetic fluorescence (iodide quenching rate) assay in CFBE41o− cells
Assay type: cell-based
Design: expressed in transfected cells; host or cells: CFBE41o- cells with expression of F508del-CFTR and HS-YFP (generated as in Sondo et al. 2011)
applied-conditions: Table 1; compound at 10 μM plus VX-809; (QRTOT − QRVX)/QRVX, HS-YFP assay
measurement-kind: AI (%) additivity index

| compound-structure | result |
| --- | --- |
| Cc1ccc(Cn2c(C(N)=O)c(Br)c3c2-c2[nH]c(=O)c(S(=O)(=O)c4ccccc4)cc2CC3)cc1 | 11% |
| Cc1cccc(Cn2c(C(=O)Nc3cc(C(C)(C)C)on3)c(Br)c3c2-c2[nH]c(=O)c(S(=O)(=O)c4ccccc4)cc2CC3)c1 | 103% |
| Cc1ccc(Cn2c(C(=O)O)cc3c2-c2[nH]c(=O)c(S(=O)(=O)c4ccccc4)cc2CC3)cc1C | 47% |
| CCOC(=O)c1c(Br)c2c(n1Cc1ccc(I)cc1)-c1[nH]c(=O)c(S(=O)(=O)c3ccccc3)cc1CC2 | 146% |
